test system: CHO; assay: % viability of CHO cells (MTT); higher = less toxic; details: 20 µM; 48 h
Response field label: string, one of label 1 (% viability of CHO cells strictly below 80%) or label 0.

Is 80% strictly greater than the molecule's reported % viability of CHO cells? molecule: `COc1ccccc1CN[C@H]1C2CCN(CC2)[C@H]1C(c1ccccc1)c1ccccc1` label 0

% viability of CHO cells under 80%? Item: `CCCCc1ccc(C(=O)O)nc1` label 0

Threshold test, % viability of CHO cells < 80%: `COc1cc(C(C)(C)CCCC(C)C)cc(OC)c1OC` label 1

For this molecule, is % viability of CHO cells lower than 80%? `Nc1c(C(=O)NCc2ccco2)c2nc3ccccc3nc2n1CCN1CCCCC1` label 1

Does this molecule meet the criterion % viability of CHO cells < 80%? CN1C(=O)C(c2ccccc2)C(=O)N(c2ccccc2)c2cc(C(F)(F)F)ccc21 (stereo unspecified) label 0

Source listed as the supplement of paper PMC7801607.
